Values compiled from ChEMBL document CHEMBL3124796.

biological target: DNA topoisomerase 1 (Homo sapiens) (UniProt P11387); experiment: Inhibition of topoisomerase 1 (unknown origin)-mediated relaxation of supercoiled pBR322 DNA at 100 uM by agarose gel electrophoresis
Sequence (P11387 whole entry): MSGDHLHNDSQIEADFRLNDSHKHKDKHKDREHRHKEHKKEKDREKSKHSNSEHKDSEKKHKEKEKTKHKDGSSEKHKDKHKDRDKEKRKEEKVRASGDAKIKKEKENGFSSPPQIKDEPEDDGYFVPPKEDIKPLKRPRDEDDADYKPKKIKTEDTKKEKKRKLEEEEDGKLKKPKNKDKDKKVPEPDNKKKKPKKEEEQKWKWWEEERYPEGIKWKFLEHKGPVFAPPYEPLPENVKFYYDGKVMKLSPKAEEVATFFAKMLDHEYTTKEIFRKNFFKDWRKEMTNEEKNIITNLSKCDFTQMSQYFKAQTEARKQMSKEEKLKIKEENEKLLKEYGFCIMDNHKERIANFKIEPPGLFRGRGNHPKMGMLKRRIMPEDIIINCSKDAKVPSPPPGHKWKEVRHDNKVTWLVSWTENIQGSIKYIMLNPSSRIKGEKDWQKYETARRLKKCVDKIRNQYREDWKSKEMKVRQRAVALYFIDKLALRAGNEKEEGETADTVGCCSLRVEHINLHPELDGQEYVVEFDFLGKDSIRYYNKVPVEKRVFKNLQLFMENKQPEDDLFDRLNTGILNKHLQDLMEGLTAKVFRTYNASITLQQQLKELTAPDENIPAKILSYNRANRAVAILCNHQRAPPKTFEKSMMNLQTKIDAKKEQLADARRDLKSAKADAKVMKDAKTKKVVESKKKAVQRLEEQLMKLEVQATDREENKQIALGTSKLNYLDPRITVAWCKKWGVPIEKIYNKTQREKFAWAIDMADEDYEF
Active and inactive are the calls of the source. The calls are words filed in the database; no cut-off is given here.
Field 'call' accepts active, inactive

Examples with answers:
Query block: What classification did `CC[C@@]1(O)C(=O)OCc2c1cc1n(c2=O)Cc2c-1nc1ccccc1c2-c1ccc2cc[nH]c2c1` end up with in this test?
Result block: active

Query block: What classification did CC[C@@]1(O)C(=O)OCc2c1cc1n(c2=O)Cc2c-1nc1ccccc1c2-c1cnn(C2CCCCO2)c1 (some centres not stated) end up with in this test?
Result block: active

Query block: What classification did `CC[C@@]1(O)C(=O)OCc2c1cc1n(c2=O)Cc2c-1nc1ccccc1c2-c1ccc2cn[nH]c2c1` end up with in this test?
Result block: active

Query block: What classification did `CC[C@@]1(O)C(=O)OCc2c1cc1n(c2=O)Cc2c-1nc1ccccc1c2-c1cnn(C)c1` end up with in this test?
Result block: active

Query block: What classification did `CC[C@@]1(O)C(=O)OCc2c1cc1n(c2=O)Cc2c-1nc1ccccc1c2-c1cccnc1` end up with in this test?
Result block: inactive

Query block: What classification did `CC[C@@]1(O)C(=O)OCc2c1cc1n(c2=O)Cc2c-1nc1ccccc1c2-c1ccnn1C` end up with in this test?
Result block: inactive

API: the following record is the query input.
Query block: What classification did `CC[C@@]1(O)C(=O)OCc2c1cc1n(c2=O)Cc2c-1nc1ccccc1c2-c1ccncc1` end up with in this test?
Result block: inactive

* * *

system: HCT-116; assay: Cytotoxicity against human HCT116 cells assessed as growth inhibition after 3 days by SRB assay; format: functional, cell-based; conditions: HCT-116, 72 h
measured-endpoint: pIC50
// pIC50 here means minus log10 of the molar concentration (mol/L)

Query block: pIC50 of `CC[C@@]1(O)C(=O)OCc2c1cc1n(c2=O)Cc2c-1nc1ccccc1c2-c1ccc2cn[nH]c2c1` on HCT-116?
Result block: 7.96

Query block: pIC50 of `CC[C@@]1(O)C(=O)OCc2c1cc1n(c2=O)Cc2c-1nc1ccccc1c2-c1ccc2cc[nH]c2c1` on HCT-116?
Result block: 7.08

Query block: pIC50 of `CC[C@@]1(O)C(=O)OCc2c1cc1n(c2=O)Cc2c-1nc1ccccc1c2-c1cnn(C)c1` on HCT-116?
Result block: 8.45

Query block: pIC50 of `CC[C@@]1(O)C(=O)OCc2c1cc1n(c2=O)Cc2c-1nc1ccccc1c2-c1ccnn1C` on HCT-116?
Result block: 6.34

Query block: pIC50 of CCc1c2c(nc3ccc(O)cc13)-c1cc3c(c(=O)n1C2)COC(=O)[C@]3(O)CC [7-ETHYL-10-HYDROXYCAMPTOTHECIN] on HCT-116?
Result block: 7.51

Query block: pIC50 of CC[C@@]1(O)C(=O)OCc2c1cc1n(c2=O)Cc2c-1nc1ccccc1c2-c1cnn(C2CCCCO2)c1 (stereo partly drawn) on HCT-116?
Result block: 7.40

Others:
Query block: pIC50 of `CC[C@@]1(O)C(=O)OCc2c1cc1n(c2=O)Cc2c-1nc1ccccc1c2-c1cccnc1` on HCT-116?
Result block: 7.22

Query block: pIC50 of `CC[C@@]1(O)C(=O)OCc2c1cc1n(c2=O)Cc2c-1nc1ccccc1c2-c1ccncc1` on HCT-116?
Result block: 7.34

* * *

tested on: MDA-MB-231; test: Cytotoxicity against human MDA-MB-231 cells; type: functional, cell-based
measured-endpoint: pIC50
// pIC50 here means minus log10 of the molar concentration (mol/L)

Query block: pIC50 of CCc1c2c(nc3ccc(O)cc13)-c1cc3c(c(=O)n1C2)COC(=O)[C@]3(O)CC [7-ETHYL-10-HYDROXYCAMPTOTHECIN] on MDA-MB-231?
Result block: 6.75

* * *

tested on: A549; assay: Cytotoxicity against human A549 cells assessed as growth inhibition after 3 days by SRB assay; format: functional, cell-based; settings: A549, 72 h
pIC50: −log10 of the molar value.
Where pIC50 equals or exceeds 8, the correct label is Criterion met; where it does not, the label is Criterion not met.

Examples with answers:
Query block: Given `CC[C@@]1(O)C(=O)OCc2c1cc1n(c2=O)Cc2c-1nc1ccccc1c2-c1ccc2cn[nH]c2c1` , state whether its pIC50 is at least 8.
Result block: Criterion met

Query block: Given CCc1c2c(nc3ccc(O)cc13)-c1cc3c(c(=O)n1C2)COC(=O)[C@]3(O)CC [7-ETHYL-10-HYDROXYCAMPTOTHECIN] , state whether its pIC50 is at least 8.
Result block: Criterion met

Query block: Given `CC[C@@]1(O)C(=O)OCc2c1cc1n(c2=O)Cc2c-1nc1ccccc1c2-c1cnn(C)c1` , state whether its pIC50 is at least 8.
Result block: Criterion met

Others:
Query block: Given `CC[C@@]1(O)C(=O)OCc2c1cc1n(c2=O)Cc2c-1nc1ccccc1c2-c1ccnn1C` , state whether its pIC50 is at least 8.
Result block: Criterion not met

Query block: Given `CC[C@@]1(O)C(=O)OCc2c1cc1n(c2=O)Cc2c-1nc1ccccc1c2-c1cccnc1` , state whether its pIC50 is at least 8.
Result block: Criterion met

* * *

system: A549; experiment: Cytotoxicity against human A549 cells assessed as growth inhibition after 3 days by SRB assay; type: functional, cell-based; conditions: A549, 72 h
// reported IC50 per item
State just the number; it will be interpreted in nM.

Query block: What measured IC50 goes with `CC[C@@]1(O)C(=O)OCc2c1cc1n(c2=O)Cc2c-1nc1ccccc1c2-c1ccncc1` ?
Result block: 6.33

Query block: What measured IC50 goes with CC[C@@]1(O)C(=O)OCc2c1cc1n(c2=O)Cc2c-1nc1ccccc1c2-c1cnn(C2CCCCO2)c1 (stereo partly drawn) ?
Result block: 7.26

Others:
Query block: What measured IC50 goes with `CC[C@@]1(O)C(=O)OCc2c1cc1n(c2=O)Cc2c-1nc1ccccc1c2-c1ccc2cc[nH]c2c1` ?
Result block: 11.1
